The measured values listed here are drawn from patent US20250122304A1.

Molecular target: T1, human FAP (Homo sapiens, UniProt Q12884)
T1 sequence (Q12884 1-760): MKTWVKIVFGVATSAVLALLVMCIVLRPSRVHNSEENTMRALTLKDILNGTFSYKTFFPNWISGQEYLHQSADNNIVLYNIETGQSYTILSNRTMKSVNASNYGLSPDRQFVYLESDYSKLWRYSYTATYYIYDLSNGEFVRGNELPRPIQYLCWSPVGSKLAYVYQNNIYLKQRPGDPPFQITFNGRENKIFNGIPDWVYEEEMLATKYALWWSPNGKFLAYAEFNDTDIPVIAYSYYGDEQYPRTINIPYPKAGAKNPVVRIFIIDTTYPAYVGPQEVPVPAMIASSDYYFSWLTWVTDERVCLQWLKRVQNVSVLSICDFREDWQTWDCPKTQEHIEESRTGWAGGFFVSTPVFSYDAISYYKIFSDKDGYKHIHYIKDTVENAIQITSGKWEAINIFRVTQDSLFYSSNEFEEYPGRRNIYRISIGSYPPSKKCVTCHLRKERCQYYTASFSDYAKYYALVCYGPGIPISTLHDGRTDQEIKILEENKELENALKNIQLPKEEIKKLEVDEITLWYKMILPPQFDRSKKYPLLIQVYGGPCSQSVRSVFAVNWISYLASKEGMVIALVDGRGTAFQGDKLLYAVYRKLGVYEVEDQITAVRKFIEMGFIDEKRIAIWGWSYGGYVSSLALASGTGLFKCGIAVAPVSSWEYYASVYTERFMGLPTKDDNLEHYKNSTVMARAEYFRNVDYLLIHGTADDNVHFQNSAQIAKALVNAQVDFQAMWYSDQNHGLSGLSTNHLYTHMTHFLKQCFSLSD
Assay: BLI (Octet) binding kinetics pre- and post-TCO conjugation (Example 7, Table 17)
Details: Post conjugation (TCO)
READOUT_KIND: koff (s⁻¹)

Before answering, review these 3 worked examples.
# MOLECULE, MEASURE_UNIT, koff
records = [
    ("VHH1: VHH, target FAP, SEQ ID NO 4 (protein, VHH1) VHH: DVQLVESGGGLVQPGGSLRLSCVASGRLSSSNSMAWYRQVPGKRRELVAGITGGGETNYADFVGGRFTISRDNAKNGLYLQLNGLKPEDTAAYYCNFWPPLINYWGQGTQVTVSS", "s⁻¹", "4.99e-05"),
    ("VHH9: VHH, target FAP, SEQ ID NO 92 (protein) VHH: QVQLQESGGGLVQSGGSLRLSCVASGSISSINAMGWYRQAPGNKREWVAGITSGGSTNYADAVLGRFSIFRDNPKNTVYLQMNSLKPEDTAVYYCNTWPPSTFGSWGQGTQVTVSSAAAYPYDVPDYGSHHHHHH", "s⁻¹", 0.0012),
    ("VHH7: VHH, target FAP, SEQ ID NO 90 (protein) VHH: QVQLQESGGGLVQAGGSLRLSCTASGTFSGRNAMAWYRQAPGKRRELVAGIRSDDSTNYVDSVKGRFTISRDNAKNTVYLQMNSLRPEDTAVYYCNLWPPVIGAGFGSWGQGTQVTVSSAAAYPYDVPDYGSHHHHHH", "s⁻¹", 0.000123),
]

(A) VHH6: VHH, target FAP, SEQ ID NO 89 (protein) VHH: DVQLVESGGGLVQAGGSLRLSCAVSGSISSANSMGWYRQAPGKQRDVVAGLTTGGRSHYADSVKGRFTISRDNAKNTVYLQMNSLKAEDTAVYYCNLWPPVQGYWGQGTQVTVSS
(B) VHH8: VHH, target FAP, SEQ ID NO 91 (protein) VHH: QVQLQESGGGTVQPGGSLRLSCAASGISVSIASMAWYRQAPGKQRELVAGIISGGSTNYADSVKGRFTISRDNAKKVVLLQMNSLKPEDTAVYYCNTYPPFVGPGATATWGQGTQVTVSSAAAYPYDVPDYGSHHHHHH
Pick the one with the larger koff: A vs B Kindly give the label for the entry you pick.
B
(B: 0.000559 s⁻¹, A: 0.000157 s⁻¹)
